- assayed_target: T1, TAMRA-labeled α-synuclein peptide (also: TAMRA fluorophore, position not given here)
- T1 peptide: GYQDYEPEA
- test_summary: FP
Where no end group is shown, it is not given here.
quantity: Kd (nM)

In the examples that follow, each entry is paired with its recorded Kd.
Task: # query: Kd of entry N2.12 reversion mutant S100d (VHH) VHH: QGQLVESGGGSVQAGGSLRLSCAASGIDSSSYCMGWFRQRPGKEREGVGRINGWRGIKTAYADSVKDRFTISRDNAENTVYLQMNSLKPEDTAIYYCAAKSSPGYCGGSWSNFGYWGQGTQVTVSS
Result: 11.9

Task: Fill in: Kd of N2.17 reversion mutant S100d (VHH) VHH: QGQLVESGGGSVQAGGSLRLSCAASGIDSSSYCMGWFRQRPGKEREGVARINGWGGVKTAYADSVKDRFTISRDNAENTVYLQMNSLKPEDTAIYYCAAKSSPGYCGGSWFNFGYWGQGTQVTVSS is ___
Result: 27.5

Task: Looking for the measured Kd of N2.12 reversion mutant F96 (VHH) VHH: QGQLVESGGGSVQAGGSLRLSCAASGIDSSSYCMGWFRQRPGKEREGVGRINGWRGIKTAYADSVKDRFTISRDNAENTVYLQMNSLKPEDTAIYYCAAKFSPGYCGGTWSNFGYWGQGTQVTVSS , can you help?
Result: 18.6

[I] N2.17 reversion mutant L52b (VHH) VHH: QGQLVESGGGSVQAGGSLRLSCAASGIDSSSYCMGWFRQRPGKEREGVARINGLGGVKTAYADSVKDRFTISRDNAENTVYLQMNSLKPEDTAIYYCAAKSSPGYCGGTWFNFGYWGQGTQVTVSS
[II] N2.12 reversion mutant L52b (VHH) VHH: QGQLVESGGGSVQAGGSLRLSCAASGIDSSSYCMGWFRQRPGKEREGVGRINGLRGIKTAYADSVKDRFTISRDNAENTVYLQMNSLKPEDTAIYYCAAKSSPGYCGGTWSNFGYWGQGTQVTVSS
[III] N2.17 reversion mutant F96 (VHH) VHH: QGQLVESGGGSVQAGGSLRLSCAASGIDSSSYCMGWFRQRPGKEREGVARINGWGGVKTAYADSVKDRFTISRDNAENTVYLQMNSLKPEDTAIYYCAAKFSPGYCGGTWFNFGYWGQGTQVTVSS
Task: Output the entries ranked by Kd from maximum down to minimum. Reply: labels, ordered per the request.
Result: III, I, II

[A] N2.12 reversion mutant G53 (VHH) VHH: QGQLVESGGGSVQAGGSLRLSCAASGIDSSSYCMGWFRQRPGKEREGVGRINGWGGIKTAYADSVKDRFTISRDNAENTVYLQMNSLKPEDTAIYYCAAKSSPGYCGGTWSNFGYWGQGTQVTVSS
[B] N2.12 reversion mutant A49 (VHH) VHH: QGQLVESGGGSVQAGGSLRLSCAASGIDSSSYCMGWFRQRPGKEREGVARINGWRGIKTAYADSVKDRFTISRDNAENTVYLQMNSLKPEDTAIYYCAAKSSPGYCGGTWSNFGYWGQGTQVTVSS
Task: Between A and B , whose recorded Kd is greater? Indicate your choice by writing its label.
Result: A
(A: 14.1 nM, B: 8.2 nM)
